# credit: patent US8299056B2

target_or_test_system: Syk (Homo sapiens)
Construct: purchased Carna Biosciences
assay_notes: Syk HTRF assay
Assay type: biochemical
settings: read-out: Activity Level (Syk HTRF assay IC50)
pIC50: −log10 of the molar value.
Each entry below lists one item and its recorded pIC50 value.
measurement_label: pIC50

smiles_code=Cn1ncc2ccc(Nc3nc4cccc(CC5CCOCC5)n4n3)cc21 test_value="6.60 to 11.30"
smiles_code=Cc1n[nH]c2ccc(Nc3nc4cccc(N[C@H]5CC[C@H](O)CC5)n4n3)cc12 test_value="6.60 to 11.30"
smiles_code=CC1(C)C(=O)Nc2cc(Nc3nc4cccc(OC5CCOCC5)n4n3)ccc21 test_value="6.60 to 11.30"
smiles_code=COC[C@]1(O)CC[C@@H](Cc2cccc3nc(Nc4ccc(C(F)(F)F)cc4)nn23)CC1 test_value="6.00 to 6.30"
smiles_code=c1ccc(-c2cccc3nc(Nc4ccc5cnoc5c4)nn23)cc1 test_value="5.00 to 6.00"
smiles_code=NCc1ccc(Nc2nc3cccc(-c4cccc(O)c4)n3n2)cc1 test_value="6.30 to 6.60"
smiles_code=CN1C(=O)C(C)(C)c2ccc(Nc3nc4cccc(N[C@H]5CC[C@@H](O)CC5)n4n3)cc21 test_value="6.60 to 11.30"
smiles_code=COc1cncc(Nc2nc3cccc(-c4ccccc4)n3n2)c1 test_value="6.00 to 6.30"
smiles_code=Fc1cccc(-c2cccc3nc(Nc4ccc5[nH]ncc5c4)nn23)c1 test_value="6.60 to 11.30"
